Listing: inhibition of selected compounds
target: STK3 (human) (UniProt Q13188); assay: Caliper, Mobility shift assay off-chip; conditions: compound 1.0 µM
Sequence (Q13188 whole entry, looked up): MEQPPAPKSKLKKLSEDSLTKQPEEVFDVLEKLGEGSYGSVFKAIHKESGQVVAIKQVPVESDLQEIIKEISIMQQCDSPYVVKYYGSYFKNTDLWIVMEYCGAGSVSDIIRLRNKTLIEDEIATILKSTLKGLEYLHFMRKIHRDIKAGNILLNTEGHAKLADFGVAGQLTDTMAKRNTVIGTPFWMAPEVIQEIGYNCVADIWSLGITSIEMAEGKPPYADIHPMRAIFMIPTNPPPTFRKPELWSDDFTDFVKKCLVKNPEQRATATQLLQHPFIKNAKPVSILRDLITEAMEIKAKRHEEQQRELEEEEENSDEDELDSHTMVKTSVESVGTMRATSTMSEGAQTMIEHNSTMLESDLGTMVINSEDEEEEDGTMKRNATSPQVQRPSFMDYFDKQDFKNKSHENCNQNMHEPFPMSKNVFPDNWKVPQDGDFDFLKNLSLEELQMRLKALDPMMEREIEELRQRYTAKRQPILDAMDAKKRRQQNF
Write the number in % without appending the unit.

Example compounds with recorded inhibition:
{"Compound": "Cn1cc(-c2cnc3ccc4ccc(CS(=O)(=O)NCC5CCCCN5)cc4c(=O)c3c2)cn1 (stereo not given)", "Obs Value": -2.7}
{"Compound": "Cn1cc(-c2cnc3ccc4ccc(CS(N)(=O)=O)cc4c(=O)c3c2)cn1", "Obs Value": 7.9}
{"Compound": "O=C(CCc1ccc2ccc3ncc(C4CCNCC4)cc3c(=O)c2c1)NCc1ccccn1", "Obs Value": 4.5}
{"Compound": "Cn1cc(-c2cnc3ccc4ccc(CS(=O)(=O)CCc5ccccn5)cc4c(=O)c3c2)cn1", "Obs Value": 0.7}

Pending compound:
Reported inhibition for STK3 (human) (UniProt Q13188), given `CN(c1ccc2ccc3ncc(-c4cnn(C)c4)cc3c(=O)c2c1)S(=O)(=O)NCc1ccccn1` ?
7.6

----------
target: RPS6KA3 KD1 KD2 (human) (UniProt P51812); test: Caliper, Mobility shift assay off-chip; conditions: compound 0.1 µM
Sequence (P51812 whole entry, looked up): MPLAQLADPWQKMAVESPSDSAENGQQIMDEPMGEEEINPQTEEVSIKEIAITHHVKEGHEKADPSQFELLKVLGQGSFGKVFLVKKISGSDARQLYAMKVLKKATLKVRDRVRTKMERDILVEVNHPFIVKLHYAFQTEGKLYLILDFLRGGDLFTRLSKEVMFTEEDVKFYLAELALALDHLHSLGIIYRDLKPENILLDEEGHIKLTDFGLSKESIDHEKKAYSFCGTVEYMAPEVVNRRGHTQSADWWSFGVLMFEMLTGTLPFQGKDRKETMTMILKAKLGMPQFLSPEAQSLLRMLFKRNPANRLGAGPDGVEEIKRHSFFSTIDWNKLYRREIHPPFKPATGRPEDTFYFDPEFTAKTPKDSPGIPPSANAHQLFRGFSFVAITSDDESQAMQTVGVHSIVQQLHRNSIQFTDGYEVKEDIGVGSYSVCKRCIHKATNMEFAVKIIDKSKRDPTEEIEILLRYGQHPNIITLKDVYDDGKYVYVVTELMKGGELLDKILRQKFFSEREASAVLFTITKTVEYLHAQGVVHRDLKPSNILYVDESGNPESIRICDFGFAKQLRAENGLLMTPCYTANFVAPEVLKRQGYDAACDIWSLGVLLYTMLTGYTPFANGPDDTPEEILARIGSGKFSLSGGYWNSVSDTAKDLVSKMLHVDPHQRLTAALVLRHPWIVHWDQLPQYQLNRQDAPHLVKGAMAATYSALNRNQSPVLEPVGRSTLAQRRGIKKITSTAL
Listing: inhibition of selected compounds
Write the number in % without appending the unit.

Example compounds with recorded inhibition:
{"Compound": "CN(c1ccc2ccc3ncc(-c4cnn(C)c4)cc3c(=O)c2c1)S(=O)(=O)NCc1ccccn1", "Subject Of Test": "RPS6KA3 KD1 KD2 (human) (UniProt P51812)", "Unit Text": "%", "inhibition": -1.9}
{"Compound": "O=C(CCc1ccc2ccc3ncc(C4CCNCC4)cc3c(=O)c2c1)NCc1ccccn1", "Subject Of Test": "RPS6KA3 KD1 KD2 (human) (UniProt P51812)", "Unit Text": "%", "inhibition": 0.7}
{"Compound": "Cn1cc(-c2cnc3ccc4ccc(CS(=O)(=O)NCC5CCCCN5)cc4c(=O)c3c2)cn1 (configuration not stated)", "Subject Of Test": "RPS6KA3 KD1 KD2 (human) (UniProt P51812)", "Unit Text": "%", "inhibition": 0.2}
{"Compound": "Cn1cc(-c2cnc3ccc4ccc(CS(N)(=O)=O)cc4c(=O)c3c2)cn1", "Subject Of Test": "RPS6KA3 KD1 KD2 (human) (UniProt P51812)", "Unit Text": "%", "inhibition": 1.2}
{"Compound": "Cn1cc(-c2cnc3ccc4ccc(CS(=O)(=O)CCc5ccccn5)cc4c(=O)c3c2)cn1", "Subject Of Test": "RPS6KA3 KD1 KD2 (human) (UniProt P51812)", "Unit Text": "%", "inhibition": -9.2}
{"Compound": "Cn1cc(-c2cnc3ccc4ccc(CS(=O)(=O)NC5CCCCC5)cc4c(=O)c3c2)cn1", "Subject Of Test": "RPS6KA3 KD1 KD2 (human) (UniProt P51812)", "Unit Text": "%", "inhibition": -3.8}

Pending compound:
Request the reported inhibition associated with `O=c1c2cc(CS(=O)(=O)NCc3ccccn3)ccc2ccc2ncc(C3CCNCC3)cc12`
8.1

----------
target: ABL2 (human) (UniProt P42684); assay: Caliper, Mobility shift assay off-chip; details: compound 0.1 µM
Sequence (P42684 whole entry, looked up): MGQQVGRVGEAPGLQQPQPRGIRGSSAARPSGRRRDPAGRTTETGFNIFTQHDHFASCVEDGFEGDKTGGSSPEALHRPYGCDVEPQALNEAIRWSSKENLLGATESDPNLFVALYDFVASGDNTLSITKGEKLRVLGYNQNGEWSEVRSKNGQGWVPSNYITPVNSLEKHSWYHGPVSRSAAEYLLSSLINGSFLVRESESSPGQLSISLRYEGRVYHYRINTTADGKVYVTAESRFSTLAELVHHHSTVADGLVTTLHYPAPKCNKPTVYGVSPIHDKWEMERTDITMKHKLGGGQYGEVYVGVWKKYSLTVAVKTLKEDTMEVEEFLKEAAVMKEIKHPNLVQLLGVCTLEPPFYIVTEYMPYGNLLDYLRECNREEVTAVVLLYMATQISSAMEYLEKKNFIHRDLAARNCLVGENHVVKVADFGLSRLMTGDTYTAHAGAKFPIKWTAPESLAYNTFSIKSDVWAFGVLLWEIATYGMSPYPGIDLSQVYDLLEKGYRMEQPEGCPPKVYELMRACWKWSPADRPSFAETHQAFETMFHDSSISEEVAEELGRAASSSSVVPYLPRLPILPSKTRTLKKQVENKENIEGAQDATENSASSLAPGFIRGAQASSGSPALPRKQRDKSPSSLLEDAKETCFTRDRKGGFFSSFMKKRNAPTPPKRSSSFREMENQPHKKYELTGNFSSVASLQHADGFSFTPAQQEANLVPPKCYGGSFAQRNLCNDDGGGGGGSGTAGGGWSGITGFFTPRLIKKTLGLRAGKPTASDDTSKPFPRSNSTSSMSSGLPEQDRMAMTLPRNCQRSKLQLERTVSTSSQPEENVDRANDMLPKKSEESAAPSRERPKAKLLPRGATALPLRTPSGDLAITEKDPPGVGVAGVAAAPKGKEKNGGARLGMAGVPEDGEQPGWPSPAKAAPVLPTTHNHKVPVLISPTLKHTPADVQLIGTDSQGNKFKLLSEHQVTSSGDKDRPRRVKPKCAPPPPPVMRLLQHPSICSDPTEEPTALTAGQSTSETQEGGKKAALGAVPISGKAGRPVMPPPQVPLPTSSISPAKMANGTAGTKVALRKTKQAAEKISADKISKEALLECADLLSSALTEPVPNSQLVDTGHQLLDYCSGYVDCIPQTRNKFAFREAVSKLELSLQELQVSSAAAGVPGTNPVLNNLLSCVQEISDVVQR
Measured Attribute: inhibition
A complete answer gives the number followed by the unit.

Example molecules with recorded inhibition:
{"Molecule": "Cn1cc(-c2cnc3ccc4ccc(CS(=O)(=O)NC5CCCCC5)cc4c(=O)c3c2)cn1", "Subject Of Test": "ABL2 (human) (UniProt P42684)", "Obs Value": "-4.3%"}
{"Molecule": "CN(c1ccc2ccc3ncc(-c4cnn(C)c4)cc3c(=O)c2c1)S(=O)(=O)NCc1ccccn1", "Subject Of Test": "ABL2 (human) (UniProt P42684)", "Obs Value": "-2.4%"}
{"Molecule": "Cn1cc(-c2cnc3ccc4ccc(CS(=O)(=O)CCc5ccccn5)cc4c(=O)c3c2)cn1", "Subject Of Test": "ABL2 (human) (UniProt P42684)", "Obs Value": "-5.3%"}
{"Molecule": "O=C(CCc1ccc2ccc3ncc(C4CCNCC4)cc3c(=O)c2c1)NCc1ccccn1", "Subject Of Test": "ABL2 (human) (UniProt P42684)", "Obs Value": "2.6%"}
{"Molecule": "O=c1c2cc(CS(=O)(=O)NCc3ccccn3)ccc2ccc2ncc(C3CCNCC3)cc12", "Subject Of Test": "ABL2 (human) (UniProt P42684)", "Obs Value": "3.1%"}

Pending molecule:
Request the reported inhibition associated with Cn1cc(-c2cnc3ccc4ccc(CS(=O)(=O)NCC5CCCCN5)cc4c(=O)c3c2)cn1 (stereo unspecified)
3.3%

----------
Listing: inhibition of selected compounds
biological target: SRC (human) (UniProt P12931); experiment: Caliper, Mobility shift assay off-chip; conditions: compound 0.1 µM
Sequence (P12931 whole entry, looked up): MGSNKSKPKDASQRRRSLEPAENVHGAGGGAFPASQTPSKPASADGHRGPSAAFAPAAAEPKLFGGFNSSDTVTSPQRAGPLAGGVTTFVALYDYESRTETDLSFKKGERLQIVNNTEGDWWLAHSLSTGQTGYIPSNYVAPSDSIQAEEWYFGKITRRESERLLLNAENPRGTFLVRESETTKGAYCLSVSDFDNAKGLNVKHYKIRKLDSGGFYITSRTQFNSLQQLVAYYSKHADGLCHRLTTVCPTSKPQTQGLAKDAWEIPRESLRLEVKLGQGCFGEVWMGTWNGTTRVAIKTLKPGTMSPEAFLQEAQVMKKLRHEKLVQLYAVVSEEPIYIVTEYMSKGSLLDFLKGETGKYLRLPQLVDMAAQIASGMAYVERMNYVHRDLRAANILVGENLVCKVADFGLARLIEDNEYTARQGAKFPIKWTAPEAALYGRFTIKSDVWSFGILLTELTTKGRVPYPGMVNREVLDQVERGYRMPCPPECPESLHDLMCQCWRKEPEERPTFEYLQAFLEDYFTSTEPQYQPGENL
A complete answer gives the number followed by the unit.

{"Compound": "Cn1cc(-c2cnc3ccc4ccc(CS(=O)(=O)NCC5CCCCN5)cc4c(=O)c3c2)cn1 (configuration not stated)", "inhibition": "3.2%"}
{"Compound": "Cn1cc(-c2cnc3ccc4ccc(CS(N)(=O)=O)cc4c(=O)c3c2)cn1", "inhibition": "0.2%"}
{"Compound": "O=C(CCc1ccc2ccc3ncc(C4CCNCC4)cc3c(=O)c2c1)NCc1ccccn1", "inhibition": "1.1%"}
{"Compound": "Cn1cc(-c2cnc3ccc4ccc(CS(=O)(=O)NC5CCCCC5)cc4c(=O)c3c2)cn1", "inhibition": "-1.4%"}
{"Compound": "CN(c1ccc2ccc3ncc(-c4cnn(C)c4)cc3c(=O)c2c1)S(=O)(=O)NCc1ccccn1", "inhibition": "-3.2%"}
{"Compound": "O=c1c2cc(CS(=O)(=O)NCc3ccccn3)ccc2ccc2ncc(C3CCNCC3)cc12", "inhibition": "-4.2%"}

Pending compound:
Reported inhibition for SRC (human) (UniProt P12931), given `Cn1cc(-c2cnc3ccc4ccc(CS(=O)(=O)CCc5ccccn5)cc4c(=O)c3c2)cn1` ?
-0.3%

----------
Listing: inhibition of selected molecules
target: FGFR2 (human) (UniProt P21802); experiment: Caliper, Mobility shift assay off-chip; details: compound 0.1 µM
Sequence (P21802 whole entry, looked up): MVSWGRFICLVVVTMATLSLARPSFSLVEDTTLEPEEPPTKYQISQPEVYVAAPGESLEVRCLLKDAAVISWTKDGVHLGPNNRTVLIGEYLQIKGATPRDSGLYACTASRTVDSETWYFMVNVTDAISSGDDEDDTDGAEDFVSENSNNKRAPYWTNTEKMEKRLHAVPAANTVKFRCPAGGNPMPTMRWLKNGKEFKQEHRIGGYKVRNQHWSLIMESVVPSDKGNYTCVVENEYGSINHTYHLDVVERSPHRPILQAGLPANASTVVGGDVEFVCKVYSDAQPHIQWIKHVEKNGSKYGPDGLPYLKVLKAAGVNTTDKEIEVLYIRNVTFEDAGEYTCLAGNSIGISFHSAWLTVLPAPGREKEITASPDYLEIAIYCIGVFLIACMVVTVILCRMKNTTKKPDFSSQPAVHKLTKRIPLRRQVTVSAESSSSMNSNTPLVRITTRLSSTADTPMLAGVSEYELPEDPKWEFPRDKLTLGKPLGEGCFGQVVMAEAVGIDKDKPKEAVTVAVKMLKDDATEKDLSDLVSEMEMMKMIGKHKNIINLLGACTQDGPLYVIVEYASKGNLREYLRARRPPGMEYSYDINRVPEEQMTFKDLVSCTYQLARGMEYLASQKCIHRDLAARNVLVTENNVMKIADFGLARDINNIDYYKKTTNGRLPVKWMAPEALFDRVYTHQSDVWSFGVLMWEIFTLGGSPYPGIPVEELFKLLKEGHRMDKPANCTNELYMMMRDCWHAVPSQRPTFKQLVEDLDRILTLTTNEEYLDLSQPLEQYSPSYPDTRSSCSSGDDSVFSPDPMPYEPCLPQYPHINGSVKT
Write the number in % without appending the unit.

{"Molecule": "Cn1cc(-c2cnc3ccc4ccc(CS(N)(=O)=O)cc4c(=O)c3c2)cn1", "Unit Text": "%", "Obs Value": 21.8}
{"Molecule": "Cn1cc(-c2cnc3ccc4ccc(CS(=O)(=O)CCc5ccccn5)cc4c(=O)c3c2)cn1", "Unit Text": "%", "Obs Value": 18.3}
{"Molecule": "O=c1c2cc(CS(=O)(=O)NCc3ccccn3)ccc2ccc2ncc(C3CCNCC3)cc12", "Unit Text": "%", "Obs Value": 8.7}
{"Molecule": "Cn1cc(-c2cnc3ccc4ccc(CS(=O)(=O)NC5CCCCC5)cc4c(=O)c3c2)cn1", "Unit Text": "%", "Obs Value": 16.5}
{"Molecule": "O=C(CCc1ccc2ccc3ncc(C4CCNCC4)cc3c(=O)c2c1)NCc1ccccn1", "Unit Text": "%", "Obs Value": 1.4}
{"Molecule": "CN(c1ccc2ccc3ncc(-c4cnn(C)c4)cc3c(=O)c2c1)S(=O)(=O)NCc1ccccn1", "Unit Text": "%", "Obs Value": 29.4}

Pending molecule:
Reported inhibition for FGFR2 (human) (UniProt P21802), given Cn1cc(-c2cnc3ccc4ccc(CS(=O)(=O)NCC5CCCCN5)cc4c(=O)c3c2)cn1 (configuration not stated) ?
3

----------
biological target: AURKB (human); assay: Caliper, Mobility shift assay off-chip; conditions: compound 0.1 µM
Listing: inhibition of selected compounds
Write the number in % without appending the unit.

{"Compound": "O=c1c2cc(CS(=O)(=O)NCc3ccccn3)ccc2ccc2ncc(C3CCNCC3)cc12", "inhibition (%)": 17}
{"Compound": "Cn1cc(-c2cnc3ccc4ccc(CS(N)(=O)=O)cc4c(=O)c3c2)cn1", "inhibition (%)": 41.7}
{"Compound": "Cn1cc(-c2cnc3ccc4ccc(CS(=O)(=O)CCc5ccccn5)cc4c(=O)c3c2)cn1", "inhibition (%)": 10.5}
{"Compound": "CN(c1ccc2ccc3ncc(-c4cnn(C)c4)cc3c(=O)c2c1)S(=O)(=O)NCc1ccccn1", "inhibition (%)": 37.1}
{"Compound": "Cn1cc(-c2cnc3ccc4ccc(CS(=O)(=O)NC5CCCCC5)cc4c(=O)c3c2)cn1", "inhibition (%)": 11.7}

Request the reported inhibition associated with Cn1cc(-c2cnc3ccc4ccc(CS(=O)(=O)NCC5CCCCN5)cc4c(=O)c3c2)cn1 (configuration not stated)
34.7

Request the reported inhibition associated with `O=C(CCc1ccc2ccc3ncc(C4CCNCC4)cc3c(=O)c2c1)NCc1ccccn1`
8

----------
target: MARK2 (human); assay: Caliper, Mobility shift assay off-chip; details: compound 0.1 µM
Label class 1 when inhibition is at or above -10%; anything below gets class 0.

{"Compound": "Cn1cc(-c2cnc3ccc4ccc(CS(=O)(=O)NC5CCCCC5)cc4c(=O)c3c2)cn1", "Label Class": "class 1"}
{"Compound": "CN(c1ccc2ccc3ncc(-c4cnn(C)c4)cc3c(=O)c2c1)S(=O)(=O)NCc1ccccn1", "Label Class": "class 1"}

Check if inhibition >= -10% (inclusive). Item: `O=C(CCc1ccc2ccc3ncc(C4CCNCC4)cc3c(=O)c2c1)NCc1ccccn1`
class 1

Check if inhibition >= -10% (inclusive). Item: Cn1cc(-c2cnc3ccc4ccc(CS(=O)(=O)NCC5CCCCN5)cc4c(=O)c3c2)cn1 (stereo unspecified)
class 0

Check if inhibition >= -10% (inclusive). Item: `Cn1cc(-c2cnc3ccc4ccc(CS(=O)(=O)CCc5ccccn5)cc4c(=O)c3c2)cn1`
class 1
